Taken from a melting point compilation (Tetko et al.; mined from patent text by program, amines drawn as free bases though some values may be those of a salt).

# reported melting point; entries follow

# count of solved cases: 3
Cc1nc2c3c(c(CO)cc2n1C)CCC1(Cc2ccccc2C1)N3; 272 to 274 °C
N#Cc1cccc(C2=Nc3ccc(C#CC4=CCCCC4)cc3NC(=O)C2)c1; 228 °C
O=C1NC(c2ccccc2)N(CCN2CCN(c3ccccc3)CC2)c2ccccc21 (stereo not drawn); 142 to 144 °C

Quick one: melting point for CCCCCCCCCCCCS(=O)(=O)NN(C(=O)c1ccccc1)c1cc(Cl)c(C)cc1O ?
124 to 125 °C

Then CS(=O)(=O)N=C(NCCSCc1ccco1)Oc1ccccc1O ?
110 to 112 °C

Then NS(=O)(=O)c1cccc2c1CSC2 ?
146 to 148 °C
